Tested on: A375 (Melanoma)
Test: Bliss excess, mean over the matrix (fraction); higher = more synergy;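 further: after 72 h of two-drug dosing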
Endpoint label: Bliss excess

>  <Compound>
COc1cccc(OCCCN)c1-c1cc(Nc2cnc(C#N)cn2)n[nH]1 [Prexasertib] + O=C(c1cc(Cc2n[nH]c(=O)c3ccccc23)ccc1F)N1CCN(C(=O)C2CC2)CC1 [Olaparib] (first compound max 1 µM, 7x7, partner max 10 µM)

>  <Endpoint label>
Bliss excess

>  <Meas value>
-0.0101

$$$$
>  <Compound>
CCc1c2c(nc3ccc(O)cc13)-c1cc3c(c(=O)n1C2)COC(=O)[C@]3(O)CC [SN-38] + O=C(c1cc(Cc2n[nH]c(=O)c3ccccc23)ccc1F)N1CCN(C(=O)C2CC2)CC1 [Olaparib] (first compound max 0.3 µM, 7x7, partner max 10 µM)

>  <Endpoint label>
Bliss excess

>  <Meas value>
0.0588

$$$$
>  <Compound>
COc1nnc2ccc(N3CCC(c4ccc(OCCN5CCN(C)C(=O)[C@H]5C)cc4)CC3)nn12 [AZD5153] + CCN(CCO)CCCOc1ccc2c(Nc3cc(CC(=O)Nc4cccc(F)c4)[nH]n3)ncnc2c1 [AZD2811] (first compound max 1 µM, 7x7, partner max 1 µM)

>  <Endpoint label>
Bliss excess

>  <Meas value>
-0.0295

$$$$
>  <Compound>
CCN(CCO)CCCOc1ccc2c(Nc3cc(CC(=O)Nc4cccc(F)c4)[nH]n3)ncnc2c1 [AZD2811] + O=C(c1cc(Cc2n[nH]c(=O)c3ccccc23)ccc1F)N1CCN(C(=O)C2CC2)CC1 [Olaparib] (first compound max 1 µM, 7x7, partner max 10 µM)

>  <Endpoint label>
Bliss excess

>  <Meas value>
0.0039

$$$$

---

Tested on: NCI-H1648 (Lung Adenocarcinoma)
Assay: Bliss excess, mean over the matrix (fraction); higher = more synergy
Each entry below lists one item and its recorded Bliss excess value.
Endpoint label: Bliss excess

>  <Compound>
COc1nnc2ccc(N3CCC(c4ccc(OCCN5CCN(C)C(=O)[C@H]5C)cc4)CC3)nn12 [AZD5153] + C=CCn1c(=O)c2cnc(Nc3ccc(N4CCN(C)CC4)cc3)nc2n1-c1cccc(C(C)(C)O)n1 [AZD1775] (first compound max 1 µM, partner max 1 µM)

>  <Measured target>
NCI-H1648 (Lung Adenocarcinoma)

>  <Meas value>
-0.0816

$$$$
>  <Compound>
Cn1cnc2c(F)c(Nc3ccc(Br)cc3Cl)c(C(=O)NOCCO)cc21 [Selumetinib] + CCN(CCO)CCCOc1ccc2c(Nc3cc(CC(=O)Nc4cccc(F)c4)[nH]n3)ncnc2c1 [AZD2811] (first compound max 10 µM, 7x7, partner max 1 µM)

>  <Measured target>
NCI-H1648 (Lung Adenocarcinoma)

>  <Meas value>
0.0048

$$$$
>  <Compound>
CC1(C)CCC(CN2CCN(c3ccc(C(=O)NS(=O)(=O)c4ccc(NCC5CCOCC5)c([N+](=O)[O-])c4)c(Oc4cnc5[nH]ccc5c4)c3)CC2)=C(c2ccc(Cl)cc2)C1 [Venetoclax] + C[C@@H](Nc1cc(F)cc(F)c1)c1cc(C(=O)N(C)C)cc2c(=O)cc(N3CCOCC3)oc12 [AZD8186] (first compound max 1 µM, 7x7, partner max 3 µM)

>  <Measured target>
NCI-H1648 (Lung Adenocarcinoma)

>  <Meas value>
-0.0603

$$$$
>  <Compound>
NC1(C(=O)N[C@@H](CCO)c2ccc(Cl)cc2)CCN(c2ncnc3[nH]ccc23)CC1 [Capivasertib] + CC(C)n1c(=O)n(C)c2cnc3cc(F)c(-c4ccc(OCCCN5CCCCC5)nc4)cc3c21 [AZD1390] (first compound max 10 µM, 7x7, partner max 0.3 µM)

>  <Measured target>
NCI-H1648 (Lung Adenocarcinoma)

>  <Meas value>
-0.0077

$$$$

Data origin: the supplement of paper PMC11061612
